target: T1, His9G-tagged human CD27 recombinant protein (human, UniProt P26842 21-191); experiment: SPR Biacore 4000, antibody captured on anti-human Fc, His9G-tagged CD27 injected, 1:1 fit;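 note: Double-referenced SPR (blank anti-Fc surface and buffer injection subtracted), KD derived from association and dissociation rate constants, with human and cynomolgus CD27 as analytes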
T1 construct: In-house, transient transfection of HEK293 cells; also called Human CD27/His

>  <Binder>
hCD27.131A VH8VL6 huIgG4 (antibody, V domains shown) VH: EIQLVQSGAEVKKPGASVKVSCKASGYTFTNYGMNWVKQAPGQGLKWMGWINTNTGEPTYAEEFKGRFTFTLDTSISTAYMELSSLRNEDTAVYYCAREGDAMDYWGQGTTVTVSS VL: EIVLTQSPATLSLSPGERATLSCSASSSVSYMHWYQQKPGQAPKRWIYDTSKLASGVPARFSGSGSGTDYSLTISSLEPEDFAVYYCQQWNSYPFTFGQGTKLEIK

>  <Kd / nM>
132

$$$$
>  <Binder>
hCD27.131A VH6VL6 huIgG4 (antibody, V domains shown) VH: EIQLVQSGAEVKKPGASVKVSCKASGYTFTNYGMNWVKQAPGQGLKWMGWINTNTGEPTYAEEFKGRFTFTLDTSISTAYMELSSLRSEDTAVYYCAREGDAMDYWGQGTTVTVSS VL: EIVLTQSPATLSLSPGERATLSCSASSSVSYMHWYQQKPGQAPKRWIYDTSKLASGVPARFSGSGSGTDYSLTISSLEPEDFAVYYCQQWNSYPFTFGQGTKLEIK

>  <Kd / nM>
168

$$$$
>  <Binder>
hCD27.131A VH9VL9 huIgG4 (antibody, V domains shown) VH: EIQLVQSGAEVKKPGASVKVSCKASGYTFTNYGMNWVRQAPGQGLKWMGWINTNTGEPTYAEEFKGRFTFTLDTSASTAYMELSSLRSEDTAVYYCAREGDAMDYWGQGTTVTVSS VL: DIQLTQSPSTLSASVGDRVTITCSASSSVSYMHWYQQKPGKAPKRWIYDTSKLASGVPARFSGSGSGTDYTLTISSLQPEDFATYYCQQWNSYPFTFGQGTKLEIK

>  <Kd / nM>
104

$$$$
>  <Binder>
hCD27.131A VH7VL7 huIgG4 (antibody, V domains shown) VH: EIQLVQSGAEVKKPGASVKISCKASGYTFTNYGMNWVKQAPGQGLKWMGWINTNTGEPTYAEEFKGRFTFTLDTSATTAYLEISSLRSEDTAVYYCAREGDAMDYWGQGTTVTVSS VL: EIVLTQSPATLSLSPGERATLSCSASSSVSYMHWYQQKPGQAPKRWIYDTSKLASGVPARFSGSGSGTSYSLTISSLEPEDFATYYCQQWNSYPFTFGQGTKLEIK

>  <Kd / nM>
82.4

$$$$
